assay: NCI Yeast Anticancer Drug Screen. Data for the bub3 strain (AID 167); details: S. cerevisiae bub3 mutant strain, at 50.0 µM, stronger effect = higher value
The panel holds about 79,000 compounds, 15% with a hit somewhere; the sample as a whole holds those more often.
Exercise: state measured growth inhibition for each of the molecules provided.
Note: unit % is implicit; provide only the numeric part.

Ask: Consider the molecule `Cc1ccc(S(=O)(=O)OC2=C/C(=N\c3onc(C)c3C)c3ccccc3C2=O)cc1` . State its measured growth inhibition.
Result: -15

Ask: Name the recorded growth inhibition of the molecule listed here: `O=C(Cc1nc(-c2ccccc2)cc(=O)n1-c1ccccc1Cl)c1ccncc1`
Result: -1.2

Ask: Provide only the value of recorded growth inhibition for c1ccc(C(c2cccc3c2ccc2ccccc23)C(c2ccccc2)c2cccc3c2ccc2ccccc23)cc1 (stereo not given)
Result: -22.4

Ask: Answer with reported growth inhibition of O=S(c1ccccc1)[C@H]1CC2C3CC4C2C4C31 (stereo not given in full)
Result: 19.9

Ask: Tell me growth inhibition reported for `O=C(O)c1ccccc1/C=N\NC1=NCCN1`
Result: -13.7

Ask: Kindly indicate its recorded growth inhibition. Item: `C=CCn1c(SCc2ccccc2)nccc1=O`
Result: 7.15

Ask: // Input: `CCOC(=O)CCC(C)=O` . Output its growth inhibition only.
Result: 14.7

Ask: Tell us which growth inhibition value is on record for `Cc1c(F)cccc1NC(=O)OC(C)C`
Result: 12.8

Ask: Look up growth inhibition of `COc1ccccc1NC(=O)OCc1ccco1` and report it.
Result: 3.35

Ask: Provide measured growth inhibition value, entry: CNC(=O)c1ccccc1CC(O)c1ccccc1 (stereo not given)
Result: 0.9

Ask: Supply reported growth inhibition belonging to this molecule: CC1C(c2ccccc2)=C(c2ccccc2)C(c2ccccc2)=C(c2ccccc2)C1c1ccccc1 (stereo not given)
Result: -1.2

Ask: Return the recorded growth inhibition value; entry: `COc1cc(C=C(C#N)C#N)ccc1OC(=O)c1cc(OC)c(OC)c(OC)c1`
Result: 4.45

Ask: Tell me measured growth inhibition for CC(SC(C)c1ccccc1)c1ccccc1 (stereo not given) please.
Result: -8.1

Ask: Identify the reported growth inhibition for the following entry. `O=C(CSc1nc2[nH]ncc2c(=O)[nH]1)c1ccc(Cl)cc1`
Result: 11.4

Ask: Output measured growth inhibition for this item: `CC1=CC(=O)Nc2ccccc2S1`
Result: 56

Ask: Quick one: give measured growth inhibition for COc1cc(C2c3cc4c(cc3OC(C)(N3CCCC3)C2C)OCO4)cc(OC)c1OC (stereo not given)
Result: -2.55

Ask: Fill in growth inhibition for record CCOC(=O)C(Cl)(Cl)C(Cl)(OCC)C(=O)OCC (stereo not given)
Result: 34.5

Ask: State its growth inhibition for this molecule: `Clc1ccccc1NCSC1=NCCS1`
Result: -3.85

Ask: For the molecule `O=C(COc1ccc2c(=O)cc(-c3ccc(Cl)cc3)oc2c1)N1CCN(c2ccccc2)CC1` , give its measured growth inhibition value.
Result: 3.95

Ask: Query growth inhibition for Cc1cccc(C(C)(C)C)c1NC(=O)C(=O)C(C(=O)/C=C\c1ccccc1)C1OC(=O)c2ccccc21 (stereo not given)
Result: 13.8

Ask: For the molecule O=NN(CC1(O)OCC(O)C(O)C1O)C(Cc1c[nH]c2ccccc12)C(=O)O (stereo not given) , give its measured growth inhibition value.
Result: -0.5

Ask: // Input: C[N+](C)(C)CC(=O)NC(=O)N/N=C\C(CC#N)CN(Cc1ccccc1)Cc1ccccc1 (stereo not given) . Output its growth inhibition only.
Result: 2.35

Ask: Please look at this molecule and report its growth inhibition: CC(=O)N1C(=O)NC(=O)C1(C)c1cccs1 (stereo not given)
Result: 2

Ask: For `COc1ccc(/C=N/NC(=O)c2cnc3[nH]c(=O)n(C)c(=O)c3c2)cc1` , write its growth inhibition.
Result: 11.2

Ask: Fill in reported growth inhibition for this entry: `Cc1ccc(C)c(NC(=O)NCc2ccc(Cl)cc2)c1`
Result: -58.1

Ask: Let me know recorded growth inhibition for `[Cl][Co][Cl].[NH-]CCC[NH-].[NH-]CCC[NH-]` , thanks.
Result: -4.4

Ask: Please report the measured growth inhibition for `O=c1cc(-c2cccc3ccccc23)[nH]c2ncccc12`
Result: -9.3

Ask: Using the record for CC(CO)N1CCCCCC1 (stereo not given) , state its measured growth inhibition.
Result: 10.7

Ask: Item `CCc1cccc(C(=O)O)c1N` : provide growth inhibition
Result: -3.75

Ask: Let me know recorded growth inhibition for `CC1=NN(C(=O)c2ccc(Cl)cc2)C(=O)/C1=C/c1ccc(O)cc1` , thanks.
Result: -3.55

Ask: Read off the recorded growth inhibition for `CCN(CC)Cc1cc(NC(C)=O)ccc1O`
Result: -4.95

Ask: Give reported growth inhibition value for `C=C1OC(=O)C(N)=C1C(C)=O`
Result: 3.9

Ask: Provide one value: measured growth inhibition of `COc1cc(C)nc2ccc(C(=O)c3ccccc3)cc12`
Result: 10.4

Ask: Give the value of growth inhibition reported for the following: O=C(CN1C(=O)c2ccccc2C1=O)C(O)CN1C(=O)c2ccccc2C1=O (stereo not given)
Result: 11.4

Ask: Note down growth inhibition recorded for CN1C(C)(C)CC(CN2c3ccccc3Sc3ccccc32)C1(C)C (stereo not given)
Result: 27.9

----------
Assignment: determine reported growth inhibition for the given compounds.
test: NCI Yeast Anticancer Drug Screen. Data for the mec2-1 strain (AID 157); conditions: S. cerevisiae mec2-1 strain, at 50.0 µM, stronger effect = higher value
Compounds without any hit were thinned out: in the full panel of roughly 79,000, 15% have a hit.
Please give a number only; it is taken to be in %.

Ask: Indicate its recorded growth inhibition; the compound in question is `O=[N+]([O-])c1ccccc1S(=O)(=O)NC1c2ccccc2Oc2ccccc21`
Result: 28.3

Ask: Give me measured growth inhibition, please, for this compound: `COc1ccc2c(c1)c(CO)c(CO)c[n+]2[O-]`
Result: 3.1

Ask: Annotate the compound `Cc1ccccc1C1=CCCCCC1` with its measured growth inhibition.
Result: -17.6

Ask: Hello, please tell me recorded growth inhibition for this one: COc1cccc2c1C(=O)c1c(O)c3c(c(O)c1C2=O)CC(O)(C(C)=O)CC3OC1CC(NC(=O)C(CCCCN)NC(=O)C(N)CCN)C(O)C(C)O1 (centres undefined)
Result: -1.15

----------
test: NCI Yeast Anticancer Drug Screen. Data for the bub3 strain (AID 167); settings: S. cerevisiae bub3 mutant strain, at 50.0 µM, stronger effect = higher value
Compounds without any hit were thinned out: in the full panel of roughly 79,000, 15% have a hit.
What growth inhibition was measured for each of the following?
Write down the numeric answer in % and omit the unit.

Ask: For the compound CCOC(=O)C1=CN(C)C=C(Br)C1C#N (stereo not drawn) , give its reported growth inhibition.
Result: 8.1

Ask: Find the measured growth inhibition of `Cc1ccc(S(=O)(=O)NN=C2C(C)(C)C(=O)C2(C)C)cc1` and report it.
Result: -2.25

Ask: Let me know recorded growth inhibition for `O=C(O)c1ccc(S(=O)(=O)c2ccccc2[N+](=O)[O-])cc1` , thanks.
Result: -12.1

Ask: For the compound `Cc1ccc(NC(=O)CSc2nnc(Cc3ccccc3)o2)cc1` , give its measured growth inhibition value.
Result: -3.65

Ask: Give the reported value of growth inhibition for this record: O=S(=O)(OCCCC1CC2C=CC1C2)c1ccc(Br)cc1 (stereo not drawn)
Result: 1.85

Ask: Let me know recorded growth inhibition for `COC(=O)CCc1ccc(N)cc1` , thanks.
Result: -2.1

Ask: Please indicate growth inhibition recorded for CC1(C)CC(c2c[nH]c3ccccc23)=CC2=Nc3ccccc3C21O (stereo not drawn)
Result: 2.65

Ask: Report growth inhibition for `O=C(NC(=O)c1cccc(Cl)c1)Nc1ccccc1`
Result: -10.7

Ask: Tell me measured growth inhibition for `Cn1c(=O)c2nsnc2n(C)c1=O` please.
Result: -3.7

Ask: State its growth inhibition: `NS(=O)(=O)c1ccc(NC2=CC(=O)C(=O)c3ccccc32)cc1`
Result: -7.55

Ask: Please report growth inhibition for the following compound: `CC[n+]1ccc(-c2ccccc2)o1`
Result: 28.4

Ask: Specify reported growth inhibition for the compound shown: `NCCCOC12CC3CC(CC(C3)C1)C2`
Result: 7.6

Ask: Please give the documented growth inhibition of `CC[C@@]12CCC(=S)N(CCSc3ccccc3)[C@@H]1c1c(n(S(=O)(=O)c3ccc(OC)cc3)c3ccccc13)CC2`
Result: 0.7

----------
assay: NCI Yeast Anticancer Drug Screen. Data for the bub3 strain (AID 167); settings: S. cerevisiae bub3 mutant strain, at 50.0 µM, stronger effect = higher value
The panel holds about 79,000 compounds, 15% with a hit somewhere; the sample as a whole holds those more often.
propertyName: growth inhibition (%)
A number alone suffices; assume %.

Ask: Please supply the value of reported growth inhibition for the item `COc1ccc(-c2c(N)nc(=S)[nH]c2C(=O)O)cc1`
Result: 8.75

Ask: Complete the entry with growth inhibition for CC(C)CC(O)C(C)C (stereo not given)
Result: -6.8

Ask: Assign growth inhibition to the following record: `Nc1ccc(OCCc2c(N)nc(N)nc2N)cc1`
Result: 22.7

Ask: Could you please provide reported growth inhibition for `Nc1nc(Cc2ccccc2)cc(-c2cc(Cc3ccccc3)nc(N)n2)n1` ? Thanks!
Result: -6.3

Ask: Let me know recorded growth inhibition for `Cc1c(C)n(COCCO)c2ncnc(N)c12` , thanks.
Result: -12.6

Ask: Name the recorded growth inhibition of the compound listed here: CCCCCCCCCCCCCCCCCC(=O)OCC1OC(OC)C(NC(=O)N(CCCl)N=O)C(O)C1O (stereo not given)
Result: 21.4

Ask: Give the reported growth inhibition for this compound. `Cn1cc(-c2ccccc2)cc1-c1ccccc1`
Result: -14.9

Ask: Name the recorded growth inhibition of the compound listed here: `COc1ccc(/C=C(\CC(=O)c2ccc(Cl)cc2)C(=O)O)cc1`
Result: 1

Ask: Return reported growth inhibition. Input compound: `COc1cc2c(c3c1/c(=N\N=c1/c4ccccc4n(C)c4c5c(cc(OC)c14)OC(C)(C)C=C5)c1ccccc1n3C)C=CC(C)(C)O2`
Result: 36.9

Ask: Could you please provide reported growth inhibition for CC(=O)c1cccc(NC(=O)C(=O)C(C(=O)c2ccccc2F)C2OC(=O)c3ccccc32)c1 (stereo not given) ? Thanks!
Result: -6.2
